# System: HCC-2998 colon
# measurement.protocol: NCI tumour cell line growth inhibition, 48 h
measurement.kind: TGI

COc1ccc(-c2nnc3n(C)c4ccccc4n3c2=O)cc1 ... > 100 µM

Consider now this further compound.
Consider the compound COc1ccc2c(c1)-c1c(c3cc(OC)ccc3n(CCN(C)C)c1=O)C2=O and give its measured TGI.
9.24 µM

###

# Tested on: MDA-MB-435
# measurement.protocol: NCI tumour cell line growth inhibition, 48 h
measurement.kind: log10 TGI (log10 of the value in µM)
Values below are the log10 of the recorded TGI, with µM as the unit.

Past entries and their recorded results:
O=C(NC1=C(Cl)C(=O)c2ccccc2C1=O)C(=O)C(C(=O)c1ccc2ccccc2c1)C1OC(=O)c2ccccc21 (configuration not stated) ... 0.52
CN1CCN(c2ccc(NC3=CC(=O)c4ncncc4C3=O)cc2)CC1 ... -0.46
COc1cccc(CCNc2c(C#N)c3n(c4ccccc4[n+]3C)c3ncccc23)c1 ... 1.66
COC(=O)CC1=C(C)/C(=C/c2[nH]c(-c3ccc[nH]3)cc2OC)N=C1C ... 0.29
O=S(=O)(/N=C(\NO)Nc1ccc(Cl)cc1)c1cc2ccccc2s1 ... 1.57
COC(=O)c1cc(-c2ccc(S(C)(=O)=O)cc2)[nH]c1N/N=C/c1c(Cl)cccc1Cl ... -0.24

Consider the molecule CSc1ccc2c(c1)c(CCN)c(C)n2Cc1ccccc1Cl and give its measured log10 TGI.
0.49

###

# Tested on: NCI-H522 lung
# measurement.protocol: NCI tumour cell line growth inhibition, 48 h
Recorded measurements of log10 of TGI, one per entry
Values below are the log10 of the recorded TGI, with µM as the unit.

COC(=O)c1c2c(cc3c1CC1(Cc4ccccc4C1)C3)CCC2 ... 1.55
COc1ccc(C2=Nc3ccccc3N=C(SC)C2)cc1 ... 1.80
Brc1ccc(-c2cc3c(cc2C2SCCS2)OCO3)cc1 ... 1.61
Cc1ccnc(Nc2[nH]c(C(=O)c3ccc(Cl)cc3)c(N)c2C(=S)Nc2ccccc2)c1 ... 1.43

Consider now this further compound.
Consider the compound CN(C)CC1CCC/C(=C\c2ccc(OC(=O)/C=C/c3ccc(Cl)cc3)cc2)C1=O (stereo not given) and give its measured log10 of TGI.
0.28

###

# Test system: HOP-92 NSCLC
# measurement.protocol: NCI tumour cell line growth inhibition, 48 h
measurement.kind: TGI

Past entries and their recorded results:
CCOC(=O)c1cc(C)nc2c1c(=O)n(-c1ccccc1)c(=O)n2CCCCN1CCN(c2ncccn2)CC1 ... > 100 µM
COc1ccc(NC(=O)C(=O)Cc2ccc([N+](=O)[O-])c([N+](=O)[O-])c2CC(=O)C(=O)Nc2ccc(OC)cc2OC)c(OC)c1 ... > 100 µM
CN(C)CCCn1c(Cn2nc3ccccc3n2)nc2cc(C(F)(F)F)ccc21 ... 89.9 µM

Consider the compound COc1ccc(-c2cc(-c3ccc(Nc4ccnc5cc(Cl)ccc45)cc3)[nH]c(=O)c2C#N)cc1 and give its measured TGI.
> 100 µM

Consider the compound Cn1c(=O)c2[nH]c(SC/C(=N/O)c3ccc(Br)cc3)nc2n(C)c1=O and give its measured TGI.
4.56 µM

Consider the compound O=C(C(=CN1CCN(C(=O)c2ccco2)C1=S)C(=O)c1ccccc1)c1ccccc1 and give its measured TGI.
> 50 µM

Consider the compound CSc1ccc(C(=O)/C=C/c2ccc(Cl)cc2Cl)cc1 and give its measured TGI.
> 100 µM

Consider the compound CC(=O)[C@@]1(c2ccccc2)CC2(CCN(C)CC2)O[C@H]1C and give its measured TGI.
> 100 µM

Consider the compound CC/C=C\C[C@H]1C/C=C2/C(=O)C(Cl)=C[C@@H]2C/C=C\CCCC(=O)O1 and give its measured TGI.
1.6 µM

###

# Tested on: OVCAR-3 ovarian
# measurement.protocol: NCI tumour cell line growth inhibition, 48 h; in the data active = GI50 below about 0.43 µM; inactive = the rest
Give your call using only these classes: 1 (yes) for active, 0 (no) for inactive

Oc1[nH]c2ccccc2c1C=Nc1ccc(-n2cncn2)cc1 ... 0 (no)
COc1cc(C2NC(=O)C(C#N)=C(Nc3cccc(C)c3)S2)ccc1O (configuration not stated) ... 0 (no)
Cn1c(I)c(C#C[Si](C)(C)C)c(=O)[nH]c1=O ... 0 (no)
CCCCCCCCN=C(NCCCCCCCC)SCc1cccc2ccccc12 ... 0 (no)
COC(=O)c1cc(-c2ccc(S(C)(=O)=O)cc2)[nH]c1N/N=C/c1c(Cl)cccc1Cl ... 1 (yes)
CC(C)(C)[Si](C)(C)OC1[C@@H](COC(=O)NC(=O)CCl)O[C@@H](n2cnc3c(N)ncnc32)[C@H]1O[Si](C)(C)C(C)(C)C (some centres not stated) ... 0 (no)

I'd appreciate the recorded outcome for O=C(NCCNCCO)c1ccc(Nc2nc3ccccc3c3occc23)cc1 from this test.
0 (no)

I'd appreciate the recorded outcome for CC12O[C@H](C[C@@H](OC(=O)CCC(=O)O)[C@H]1O)n1c3ccccc3c3c4c(c5c6ccccc6n2c5c31)C(=O)NC4=O from this test.
0 (no)

I'd appreciate the recorded outcome for CSc1nc2c(c(=O)n1C)C(c1ccccc1)C1=C(N2)/C(=C/c2ccccc2)CCC1 (configuration not stated) from this test.
0 (no)

I'd appreciate the recorded outcome for CCOC(=O)/C=C1/SC(=Nc2ccc(C#N)cc2)N(Cc2ccco2)C1=O from this test.
0 (no)

I'd appreciate the recorded outcome for CCC(=O)Nc1nnc(Cc2ccc(OC)c(OC)c2)s1 from this test.
0 (no)

###

Recorded measurements of GI50, one per entry
# System: EKVX NSCLC
# measurement.protocol: NCI tumour cell line growth inhibition, 48 h

Quick check: GI50 on EKVX NSCLC, item COc1ccc2c(c1)/C(=N/OC(C)=O)c1c-2c(OC)nc2ccccc12 ?
> 100 µM

Quick check: GI50 on EKVX NSCLC, item Oc1[nH]c2ccccc2c1C=Nc1ccc(-n2cncn2)cc1 ?
> 25 µM

###

# System: NCI-H460 lung
# measurement.protocol: NCI tumour cell line growth inhibition, 48 h
Class Satisfied: TGI at least 30 µM. Class Not satisfied: TGI below 30 µM.

Example cases with answers are listed next.
CSc1ccc(C(=O)/C=C/c2ccc(Cl)cc2Cl)cc1 ... Satisfied
O=C1Nc2ccc(Br)cc2/C1=N/N1C(=O)C(=O)N(C2CCCCC2)C1=S ... Not satisfied
CC#COS(=O)(=O)c1ccc(C)cc1 ... Satisfied
N=C(CC(=O)Nc1ccccn1)c1ccccc1 ... Satisfied
COc1ccc(-c2oc3cc(O)c(OC)c(O)c3c(=O)c2O)cc1 ... Not satisfied
Cc1cc(N2CCOCC2)nc(NCc2cc(Nc3ccnc4cc(Cl)ccc34)ccc2F)n1 ... Not satisfied
CN(C)CCC[N+]1=Nc2cccc3cccc(c23)N1 ... Satisfied
COc1ccc(/C=C/c2ccnc3ccccc23)cc1OC ... Not satisfied

Could you verify whether the entry COc1ccc2c(c1)-c1c(c3cc(OC)ccc3n(CCN(C)C)c1=O)C2=O shows TGI of no less than 30 µM?
Not satisfied

Could you verify whether the entry O=C(CI)Nc1ccc(Br)cc1 shows TGI of no less than 30 µM?
Satisfied

Could you verify whether the entry O=C1Cc2cc(CCN3CCNCC3)c(Cl)cc2N1 shows TGI of no less than 30 µM?
Satisfied

###

# Test system: SK-OV-3 ovarian
# measurement.protocol: NCI tumour cell line growth inhibition, 48 h
measurement.kind: GI50

CC1=C[C@@H]2c3c(c(O)c(O)c4oc5cc(O)cc(O)c5c(=O)c34)[C@@H](c3cc(O)c(O)c4oc5cc(O)cc(O)c5c(=O)c34)[C@@H]2C(C)(C)C1 ... 3.77 µM
CN(CCCCCl)P(=O)(OCc1ccc([N+](=O)[O-])o1)OCC1OC(n2cc([N+](=O)[O-])c(=O)[nH]c2=O)CC1O (stereo not given) ... 96.4 µM

Consider the compound CSc1nc2c(c(=O)n1C)C(c1ccccc1)C1=C(N2)/C(=C/c2ccccc2)CCC1 (stereo not given) and give its measured GI50.
25.1 µM

Consider the compound N#Cc1c(N)nc(N2CCOCC2)c(C#N)c1-c1c(Cl)cccc1Cl and give its measured GI50.
4.09 µM

Consider the compound CCS(=O)(=O)c1ccc(OC)c(Nc2ncc(-c3cccc(F)c3)o2)c1 and give its measured GI50.
> 25 µM

###

Recorded measurements of log10(TGI), one per entry
# Test system: ACHN renal
# measurement.protocol: NCI tumour cell line growth inhibition, 48 h
Values below are the log10 of the recorded TGI, with µM as the unit.

Cc1cc(N(CCNc2ccnc3cc(Cl)ccc23)Cc2ccc3c(c2)OCO3)nc(N2CCCC2)n1 ... 0.61
COc1cccc(CCNc2c(C#N)c3n(c4ccccc4[n+]3C)c3ncccc23)c1 ... 1.56
FC(F)(F)c1cccc(-c2[nH]ncc2-c2nnnn2-c2ccccc2)c1 ... 1.39
Cc1cc(O)c2c(c1)C(C1c3cccc(O)c3C(=O)c3c(O)cc(C)cc31)c1cccc(O)c1C2=O (stereo not given) ... 0.55
N#CC1=C(N)N(/N=C/c2ccco2)C(c2ccco2)C1(C#N)C#N (stereo not given) ... 1.48

Quick check: log10(TGI) on ACHN renal, item Fc1ccc(Nc2nc(Nc3ccc(-c4nc5ccccc5[nH]4)cc3)c3cn[nH]c3n2)cc1 ?
0.71

Quick check: log10(TGI) on ACHN renal, item COc1ccc(Nc2nc(N)c(C(=O)c3ccc(Cl)cc3)s2)cc1 ?
1.50

Quick check: log10(TGI) on ACHN renal, item O=C1/C(=C/c2ccc([N+](=O)[O-])o2)Oc2ccc(Cl)cc21 ?
0.47

Quick check: log10(TGI) on ACHN renal, item O=C(C(=CN1CCN(C(=O)c2ccco2)C1=S)C(=O)c1ccccc1)c1ccccc1 ?
1.22

Quick check: log10(TGI) on ACHN renal, item O=C(CCc1ccccc1)CC1OC(=O)C(Cl)=C1Cl (stereo not given) ?
1.59
